# Target: human FolR2 (Homo sapiens, UniProt P14207)
# Sequence (P14207 with tags, fused parts or gaps): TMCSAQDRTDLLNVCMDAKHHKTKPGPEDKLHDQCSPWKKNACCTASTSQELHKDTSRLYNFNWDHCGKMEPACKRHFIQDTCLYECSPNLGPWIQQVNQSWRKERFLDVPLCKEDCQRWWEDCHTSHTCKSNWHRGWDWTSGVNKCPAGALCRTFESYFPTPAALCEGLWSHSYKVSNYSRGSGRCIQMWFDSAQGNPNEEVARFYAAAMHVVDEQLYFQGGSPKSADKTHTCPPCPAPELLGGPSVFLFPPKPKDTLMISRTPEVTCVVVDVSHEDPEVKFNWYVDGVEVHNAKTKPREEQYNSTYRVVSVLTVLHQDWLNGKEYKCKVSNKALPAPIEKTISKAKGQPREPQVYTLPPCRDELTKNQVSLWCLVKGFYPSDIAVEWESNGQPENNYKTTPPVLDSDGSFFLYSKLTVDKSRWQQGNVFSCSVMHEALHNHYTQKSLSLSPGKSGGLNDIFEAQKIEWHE
# Measurement Description: SPR affinity of selected Fab clones (ProteOn XPR36)
# Assay type: binding
# Design: the extracellular domain of the antigen linked to the hinge region of Fc-knob; made in house; host or cells: HEK293 EBNA
# Experimental Parameters: Fab-format, generic multi-framework sub-libraries, 25° C.
Reported Property: KD huFolR2

{"columns": ["Molecule", "Measurement"],
 "data": [
  ["6B6: anti-FolR1 clone, generic multi-framework library (Vk3_20/VH1_46); Fab and IgG (antibody, V domains shown) VH: QVQLVQSGAEVKKPGASVKVSCKASGYTFTSYYMHWVRQAPGQGLEWMGIINPSGGSTSYAQKFQGRVTMTRDTSTSTVYMELSSLRSEDTAVYYCARSYVDMDYWGQGTLVTVSS VL: EIVLTQSPGTLSLSPGERATLSCRASQSVSSSYLAWYQQKPGQAPRLLIYGASSRATGIPDRFSGSGSGTDFTLTISRLEPEDFAVYYCQQDIWSPTFGQGTKVEIK", "no binding"],
  ["5D9: anti-FolR1 clone, generic multi-framework library (Vk3_20/VH1_46); Fab and IgG (antibody, V domains shown) VH: QVQLVQSGAEVKKPGASVKVSCKASGYTFTSYYMHWVRQAPGQGLEWMGIINPSGGSTSYAQKFQGRVTMTRDTSTSTVYMELSSLRSEDTAVYYCARSYIDMDYWGQGTLVTVSS VL: EIVLTQSPGTLSLSPGERATLSCRASQSVSSSYLAWYQQKPGQAPRLLIYGASSRATGIPDRFSGSGSGTDFTLTISRLEPEDFAVYYCQQDNWSPTFGQGTKVEIK", "no binding"],
  ["36F2: anti-FolR1 clone, generic multi-framework library (Vk_3_20/VH_1_46); Fab and IgG (antibody, V domains shown) VH: QVQLVQSGAEVKKPGASVKVSCKASGYTFTSYYMHWVRQAPGQGLEWMGIINPSGGSTSYAQKFQGRVTMTHDTSTSTVYMELSSLRSEDTAVYYCARSFFTGFHLDYWGQGTLVTVSS VL: EIVLTQSPGTLSLSPGERATLSCRASQSVSSSYLAWYQQKPGQAPRLLIYGASSRATGIPDRFSGSGSGTDFTLTISRLEPEDFAVYYCQQYTNEHYYTFGQGTKVEIK", "no binding"]
]}
